Quick reference: log10 EC90 of the listed items.
# System: J774-internalized M. tuberculosis (H37Rv)
# protocol_text: intracellular activity by luminescence (EC90)
# Type: cell-based, Mycobacterium tuberculosis
# condition_context: Mycobacterium tuberculosis, H37RV, 120 h; EC90, day 5, J774 macrophages, RLU; read-out: Intracellular activity, EC90 (±SD) Day 5
Please interpret these as log10 of EC90 where EC90 is in nM.

compound="COc1nc2ccc(Br)cc2cc1[C@@H](c1ccccc1)[C@@](O)(CCN(C)C)c1cccc2ccccc12 [Bedaquiline]" recorded_measurement=2.46
compound="CC[C@@H](CO)NCCN[C@@H](CC)CO [Ethambutol]" recorded_measurement=4.64
compound="CC(C)/N=c1\\cc2n(-c3ccc(Cl)cc3)c3ccccc3nc-2cc1Nc1ccc(Cl)cc1 [Clofazimine]" recorded_measurement=3.83
compound="CO[C@H]1/C=C/O[C@@]2(C)Oc3c(C)c(O)c4c(O)c(c(/C=N/N5CCN(C)CC5)c(O)c4c3C2=O)NC(=O)/C(C)=C\\C=C\\[C@H](C)[C@H](O)[C@@H](C)[C@@H](O)[C@@H](C)[C@H](OC(C)=O)[C@@H]1C [Rifampin]" recorded_measurement=3.19

# ---- query compound ----
// query Would you mind telling me what log10 EC90 value was observed for NNC(=O)c1ccncc1 [Isoniazid] ?
// result 3.02
